// data source = patent US20220281821A1

Target: TRKC (Homo sapiens)
Construct: purchased life technologies PV3617
Sequence (Q16288 32-839): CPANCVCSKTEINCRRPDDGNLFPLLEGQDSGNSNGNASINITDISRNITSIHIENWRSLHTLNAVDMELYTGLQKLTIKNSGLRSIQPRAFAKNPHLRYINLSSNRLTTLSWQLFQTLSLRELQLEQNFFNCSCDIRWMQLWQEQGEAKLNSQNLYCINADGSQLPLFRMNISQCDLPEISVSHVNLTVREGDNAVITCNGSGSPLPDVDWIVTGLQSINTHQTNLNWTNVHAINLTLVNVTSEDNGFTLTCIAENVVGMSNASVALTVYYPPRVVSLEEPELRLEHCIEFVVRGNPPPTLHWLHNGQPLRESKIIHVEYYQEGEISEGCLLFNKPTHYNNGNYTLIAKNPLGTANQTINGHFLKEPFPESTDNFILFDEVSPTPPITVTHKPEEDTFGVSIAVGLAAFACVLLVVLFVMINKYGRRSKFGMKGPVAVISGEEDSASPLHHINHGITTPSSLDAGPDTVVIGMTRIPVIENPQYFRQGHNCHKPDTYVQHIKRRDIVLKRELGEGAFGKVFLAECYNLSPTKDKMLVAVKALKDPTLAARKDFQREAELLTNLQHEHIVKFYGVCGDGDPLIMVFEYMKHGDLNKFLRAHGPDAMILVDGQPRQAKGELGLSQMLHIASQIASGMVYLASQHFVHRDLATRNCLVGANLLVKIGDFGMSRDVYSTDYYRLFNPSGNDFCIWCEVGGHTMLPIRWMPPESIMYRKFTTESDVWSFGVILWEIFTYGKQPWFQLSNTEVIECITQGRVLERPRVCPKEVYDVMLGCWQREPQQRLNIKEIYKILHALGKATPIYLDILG
Assay: Z′-LYTE kinase activity assay, TRKC
Type: biochemical
Conditions: ATP 50 uM
pIC50: −log10 of the molar value.
pIC50 values, listed per item
attribute.measured: pIC50

| molecule | value |
| --- | --- |
| N#Cc1cccc(Cc2ccc3[nH]nc(/C=C/c4ccccn4)c3c2)c1 [DYX-136X] | 8.24 |
| Fc1cc(F)cc(Cc2ccc3[nH]nc(/C=C/c4ccncc4)c3c2)c1 [DYX-215] | 7.68 |
| Fc1cc(F)cc(COc2ccc3[nH]nc(/C=C/c4ccccn4)c3c2)c1 [DYX-132] | 8.52 |
| O=C(Nc1cc(F)cc(F)c1)Nc1ccc2[nH]nc(/C=C/c3ccccn3)c2c1 [DYX-174] | 7.03 |
| Fc1cc(F)cc(-c2ccc3[nH]nc(/C=C/c4ccccn4)c3c2)c1 [DYX-119] | 6.65 |
